B1: Osa-1-4 twister ribozyme (parent)
chain: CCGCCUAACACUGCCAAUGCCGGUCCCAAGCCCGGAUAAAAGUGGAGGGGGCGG

Variants of: B1
Assay: self-cleavage, relative activity (ratio to wild type); higher = more cleavage; co-transcriptional
measured_attribute: self-cleavage

{"sequence_text": "CCGCCUAACACUGCCAAUGCCCGUCCCAAGCCCGGAUAAAAGUGGAGGGGGCGC", "endpoint_result": 0.15}
{"sequence_text": "CCGCCUAACACUGCCAAUGCCGGUCCCAAGCCCGAAAAAAAGUGGAGGGGGCGG", "endpoint_result": 1.05}
{"sequence_text": "CCGCCUAACACUGACAAUGCCGGUCCCAAGCCCGGAUAGAAGUGGAGGGGGCGG", "endpoint_result": 0.08}
{"sequence_text": "CCGCCUAACACUGCCAAUGCCGGUCCCAAGCCCGGAUUAAAGUGGAGGGGGCCG", "endpoint_result": 0.09}
{"sequence_text": "CCGCCUAACUCUGCCACUGCCGGUCCCAAGCCCGGAUAAAAGUGGAGGGGGCGG", "endpoint_result": 0.04}
{"sequence_text": "CCGCCUAACAGUGCCACUGCCGGUCCCAAGCCCGGAUAAAAGUGGAGGGGGCGG", "endpoint_result": 0.05}
{"sequence_text": "CCGCCUAACACUGCCAAUGCUGGUCCCAAGCCCGGAUAAAGGUGGAGGGGGCGG", "endpoint_result": 0.75}
{"sequence_text": "CCGCCUAACACUGCCAAUGCCGGUUCCAGGCCCGGAUAAAAGUGGAGGGGGCGG", "endpoint_result": 0.08}
{"sequence_text": "CCGCCUAAUACUGUCAAUGCCGGUCCCAAGCCCGGAUAAAAGUGGAGGGGGCGG", "endpoint_result": 0.41}
{"sequence_text": "CCGCCUAACACUGCCAAUGUCGGUCCCAAGCCCGGAUAAAAGUGGAGGGGGCCG", "endpoint_result": 0.09}
{"sequence_text": "CCGCCUAACACUGCCCAUGCCGGUCCCAAGCCCGGAUAAGAGUGGAGGGGGCGG", "endpoint_result": 0.54}
{"sequence_text": "CCGCCUAACACAGCCAAUGCCGGUCCCAAGCCCGGAAAAAAGUGGAGGGGGCGG", "endpoint_result": 0.71}
{"sequence_text": "CCGCCUCACACUGCCAAUGCUGGUCCCAAGCCCGGAUAAAAGUGGAGGGGGCGG", "endpoint_result": 0.04}
{"sequence_text": "CCGCCUAACGCUGCCAAUGCCGGUCCCAAGUCCGGAUAAAAGUGGAGGGGGCGG", "endpoint_result": 0.36}
{"sequence_text": "CCGCCUAACACUGCCAAUGCCGGUCCCAAGCUCGGAUAAAAGUGGCGGGGGCGG", "endpoint_result": 0.04}
{"sequence_text": "CCGCCUAACACUGCCAAUGUCAGUCCCAAGCCCGGAUAAAAGUGGAGGGGGCGG", "endpoint_result": 0.6}
{"sequence_text": "CCGCCUAAUACUGCCAAUGCCGAUCCCAAGCCCGGAUAAAAGUGGAGGGGGCGG", "endpoint_result": 0.12}
{"sequence_text": "CCGCCUUACACUGCCAAUGCCGGUCCCAAGGCCGGAUAAAAGUGGAGGGGGCGG", "endpoint_result": 0.06}
{"sequence_text": "CCGCCUAACACUGCCAAUGCGGGUCCCAAGCCCGGAUAAAAGUGGAGGGGGUGG", "endpoint_result": 0.1}
{"sequence_text": "CCGCCUAACAAUGCCAAUGCCGGUCCCAAGCCCGGCUAAAAGUGGAGGGGGCGG", "endpoint_result": 0.11}
{"sequence_text": "CCGCCUAACACUGCCAAUGCCUGUCCCAAGCCCGGAUAAAAGUGGAGGGGGAGG", "endpoint_result": 0.17}
{"sequence_text": "CCGCCUAACAUUGCCUAUGCCGGUCCCAAGCCCGGAUAAAAGUGGAGGGGGCGG", "endpoint_result": 0.8}
{"sequence_text": "CCGCCUAACACUGCCAAUGACGAUCCCAAGCCCGGAUAAAAGUGGAGGGGGCGG", "endpoint_result": 0.18}
{"sequence_text": "CCGCCUAACACUGCCAAUGCCGGUCCCAAGCCCGGGUAAAAGUGGAGGUGGCGG", "endpoint_result": 0.27}
{"sequence_text": "CCGCCUAACACUGCCACUGCCGGUCCCAAGCCCGGAUAAAAGUGGAGGGUGCGG", "endpoint_result": 0.86}
{"sequence_text": "CCGCCUAACACUGCCAAUGCCGGUCCCAAGCCCGGCUAUAAGUGGAGGGGGCGG", "endpoint_result": 0.15}
{"sequence_text": "CCGCCUAACACUGCCAAUGCCGGUCCUACGCCCGGAUAAAAGUGGAGGGGGCGG", "endpoint_result": 0.02}
{"sequence_text": "CCGCCUAACACUGCCAAUGCCGGUCCCAAGUCCGGAUAAAAGUCGAGGGGGCGG", "endpoint_result": 0.62}
{"sequence_text": "CCGCCUAACACUGCCAAUGCCGGACCCAAGCCCGGAUAAAAGUGGAGGAGGCGG", "endpoint_result": 0.05}
{"sequence_text": "CCGCCUAACACUGCCAAUGCCCGUACCAAGCCCGGAUAAAAGUGGAGGGGGCGG", "endpoint_result": 0.03}
{"sequence_text": "CCGCCUAACACUGCCAAUGCCGGUCCCAAGCCCGGAUAAAAGUGGAGGGUCCGG", "endpoint_result": 0.11}
{"sequence_text": "CCGCCUAACACGGCCAAUGCCGGUCCCAAGCCCGGAUAAAAGUGGCGGGGGCGG", "endpoint_result": 0.03}
{"sequence_text": "CCGCCUAACACUGCCAAUGCCGGUCCCAAGCCCGGAUAAAAGAGGAGGGGGCGG", "endpoint_result": 0.93}
{"sequence_text": "CCGCCUUACACUGCCAAUGCCGGUCCCAAGCCCGGAUAAAAGUGGAGGCGGCGG", "endpoint_result": 0.03}
{"sequence_text": "CCGCCUAACACUGCCAAUGCCGGUCCCAAGCCCGGAGAAAAGUGGAGGCGGCGG", "endpoint_result": 0.08}
{"sequence_text": "CCGCCUAACACUGCCAAUGCCGGUCCCAAGCCCGGAUCAAAUUGGAGGGGGCGG", "endpoint_result": 0.07}
{"sequence_text": "CCGCCUAACACUGCCAAUGCCGGUCCCAAGCCCGGAUAGAAGUGGAGUGGGCGG", "endpoint_result": 0.07}
{"sequence_text": "CCGCCUAACACUGCCAAUGCGGGUCCCAAGCCCGCAUAAAAGUGGAGGGGGCGG", "endpoint_result": 0.03}
{"sequence_text": "CCGCCUCACACUGCCAAUGCCGGUCCCAAACCCGGAUAAAAGUGGAGGGGGCGG", "endpoint_result": 0.01}
{"sequence_text": "CCGCCUAACACUGCCCAUGCCGGUCCCAAGCCAGGAUAAAAGUGGAGGGGGCGG", "endpoint_result": 0.08}
{"sequence_text": "CCGCCUAACACUGCCAAUGUCGGUCCCAAGCCCGGAUCAAAGUGGAGGGGGCGG", "endpoint_result": 0.95}
{"sequence_text": "CCGCCUAACACUGCCAAUGCCGGUCCGAAGCCCGGAUAAAAGUGGAAGGGGCGG", "endpoint_result": 0.15}
{"sequence_text": "CCGCCUAACACUGCCAAUGCCGGCCCCAAGCCCGGAUAAAAGUGGUGGGGGCGG", "endpoint_result": 0.05}
{"sequence_text": "CCGCCUAACACUGCCAAUGCCGGUCCCAAGCCCGGAUAAAAGUCGGGGGGGCGG", "endpoint_result": 0.05}
{"sequence_text": "CCGCCUAACAAUGCCAAUGCCGGUCCCAAGCCCGGAUAAAACUGGAGGGGGCGG", "endpoint_result": 0.83}
{"sequence_text": "CCGCCUAACACUGCCAAUGCCCGUCCCUAGCCCGGAUAAAAGUGGAGGGGGCGG", "endpoint_result": 0.06}
